target: T1, Tag-free human IL6 recombinant protein (GenScript, Cat. No. Z03034) (human, UniProt P05231 30-212); assay: indirect ELISA, IL6 coated at 0.5 µg/ml, antibody titrated
T1 construct: Bought recombinant protein; The catalogue number is printed only for the immunogen, and the assays say only 'recombinant IL6 protein' or 'IL6'; also called recombinant IL6 protein; Interleukin 6
Parameter: EC50. Scope: all listed entries.

See these solved cases before continuing.
{"columns": ["Binder", "Recorded Value"],
 "data": [
  ["23A9H3 (antibody, V domains shown, Mouse hybridoma clone; Made recombinantly in HEK293-6E cells as variable region + constant region and purified on protein A as IgG) VH: QVQLQQSGAELAKPGASVKMSCKTSGYTFTNYWMHWVKQRPGQGLEWIGYVIPSTGYTDYNQSFKDKATLTADKSSNTAYMQVNSLTSEDSAVYYCASLLPGFAYWGQGTLVTVSA VL: DVVMTQTPLSLPVSLGDQASISCRSSQSLVDSNGNTYLHWYLQKPGQSPKLLIYKVSNRFSGVPDRFSGSGSGTDFTLKISRVEAEDLGVYFCSQSTHVPPTFGGGTKLEIK", "< 0.025 µg/mL"],
  ["53A2F9 (rat) (antibody, V domains shown, Rat hybridoma clone; Made recombinantly in HEK293-6E cells as variable region + constant region and purified on protein A as IgG) VH: QVQLKESGPGLVQPSQTLSLTCTVSGFSLTSHTVSWIRQPPGRGLEWMGKMWSNGDTDYDSAIRSRLSITRDTSKSQVFLKINSLQTEDTAMYFCARYYFSSYGGGYFDYWGQGVMVTVSS VL: DTVLTQSPALAVSLGQRVTISCRASKSVSTYMHWYQQKSGQQPKLLIYSASNLESGVPSRFSGSGSGTDFTLTIDPVEADDIANYYCQQSDELPDTFGAGTKLELK", "0.04 nM"],
  ["49F10H6 (antibody, V domains shown, Mouse hybridoma clone; Made recombinantly in HEK293-6E cells as variable region + constant region and purified on protein A as IgG) VH: QVQLQQPGAELVKPGASVKMSCKASGYTFTNYIIHWIKQTPGQGLEWIGAIYPGNGDTSYSQKFKDKATLTADRSSSTAYMQLSSLTSEDSAVYYCARGDAGYSAWFAYWGQGTLVTVSA VL: NIVLTQSPASLAVSLGQRATISCSASESVDSYGNNFMHWYQQRPGQPPKLLIYLASKLESGVPARFSGSGSRTEFTLTIDPVEAEDAATYYCQQNNEDPLTFGAGTKLELK", "< 0.025 µg/mL"]
]}

Now take the following binder into account.
INPUT: # lookup: EC50 of 29D6B5 (antibody, V domains shown, Mouse hybridoma clone; Made recombinantly in HEK293-6E cells as variable region + constant region and purified on protein A as IgG) VH: QVQLQQSGAELAEPGASVKMSCKASGYNFNNYWMHWVKQGPGQGLEWIGYIDPRTASIYYNQKFKDKATLTADKSSSTAYMQLSSLTSEDSAVYYCARILYGKYDVWGAGTTVIVSS VL: DVVLTQTPLSLPVSLGNQASISCRSSQSLVDSNGNTYLHWYLQKPGQSPKVLIHKVSNRFSGVPDRFSGSGSGTDFTLKISRVEAEDLGVYFCSQSTHVPPTFGGGTKLEIK
OUTPUT: < 0.025 µg/mL
